Target: UniProt:O43613
Assay: Human orexin 1 receptor radioligand binding
Settings: human orexin 1 receptor; averages of 2-20 runs; read-out: hOX1 Ki
Criterion: Ki strictly under 30 nM. Met: 1. Not met: 0.

compound	label
O=C(c1ccc(F)cc1-c1ncccn1)N1C[C@H]2C[C@@H](Oc3cnc(C(F)(F)F)cn3)[C@@H]1C2 [Example 127]	0
Cc1cnc(N[C@@H]2C[C@H]3C[C@@H]2N(C(=O)c2ccccc2-c2ncccn2)C3)cn1 [Example 220]	1
Cc1ccc(-c2ncccn2)c(C(=O)N2C[C@H]3C[C@@H](Oc4ccc(C(F)(F)F)cn4)[C@@H]2C3)n1 [Example 92]	1
COc1ccc(N[C@@H]2C[C@H]3C[C@@H]2N(C(=O)c2cccc(F)c2-c2ncccn2)C3)nc1 [Example 176]	0

Task: Please check: Ki for Cc1cnc(C(=O)N2C[C@H]3C[C@@H](Oc4ccc(C(F)(F)F)cn4)[C@@H]2C3)c(-n2ccnn2)c1 [Example 294] , strictly under 30 nM or not?
Output: 0

Task: Same read-out for O=C(c1ccccc1-c1ncccn1)N1C[C@H]2C[C@@H](Nc3cnc(C(F)(F)F)cn3)[C@@H]1C2 [Example 201] ?
Output: 1

Task: Same read-out for O=C(c1cc(F)ccc1-c1ncccn1)N1C[C@H]2C[C@@H](Nc3ncc(C(F)(F)F)cn3)[C@@H]1C2 [Example 228] ?
Output: 1

Task: Same read-out for Cc1cccc(C(=O)N2CC3CCC2C(Nc2cnc(C(F)(F)F)cn2)C3)c1-n1nccn1 (racemic) [Example 256] ?
Output: 1

Task: Same read-out for Cc1ccc(-n2nccn2)c(C(=O)N2C[C@H]3C[C@@H](Nc4ccc(C(F)(F)F)nn4)[C@@H]2C3)n1 [Example 243] ?
Output: 0

Task: Same read-out for O=C(c1ccccc1-n1nccn1)N1C[C@H]2C[C@@H](Nc3ncc(C(F)(F)F)cn3)[C@@H]1C2 [Example 60] ?
Output: 1

Task: Same read-out for CCc1cnc(O[C@@H]2C[C@H]3C[C@@H]2N(C(=O)c2ccccc2-n2nccn2)C3)nc1 [Example 135] ?
Output: 0

Task: Same read-out for O=C(c1ccccc1-c1ncccn1)N1C[C@H]2C[C@@H](Oc3ccc(C(F)(F)F)cn3)[C@@H]1C2 [Example 297] ?
Output: 1

---

Biological target: rat orexin 1 receptor (Rattus norvegicus)
Experiment: Rat orexin 1 receptor radioligand binding
Details: rat orexin 1 receptor; averages of 2-20 runs; read-out: rOX1 Ki
observed.property: Ki (nM)
One number for each entry, in nM.

line.notation	observed.result
O=C(c1ccccc1-n1nccn1)N1C[C@H]2C[C@@H](Oc3ccc(C(F)F)cn3)[C@@H]1C2	10
O=C(c1cccc(F)c1-c1ncccn1)N1C[C@H]2C[C@@H](Nc3nc4ccccc4o3)[C@@H]1C2	5
Cc1ccc(-n2nccn2)c(C(=O)N2C[C@H]3C[C@@H](Nc4nc5ccccc5o4)[C@@H]2C3)n1	5
O=C(c1cc(F)ccc1-c1ncccn1)N1C[C@H]2C[C@@H](Nc3cnc(C(F)(F)F)cn3)[C@@H]1C2	6
O=C(c1ncccc1-c1ncccn1)N1C[C@H]2C[C@@H](Oc3ccc(C(F)(F)F)cn3)[C@@H]1C2	8

Provide Ki values for the following items, in order.
1. O=C(c1c(F)cccc1-n1nccn1)N1C[C@H]2C[C@@H](Oc3ccc(Br)cn3)[C@@H]1C2
2. O=C(c1ccccc1-c1ncc(F)cn1)N1C[C@H]2C[C@@H](Nc3ncc(C(F)(F)F)cc3F)[C@@H]1C2

Output:
1: 6; 2: 6

---

Molecular target: rat orexin 1 receptor (Rattus norvegicus)
Assay: Rat orexin 1 receptor radioligand binding
Conditions: rat orexin 1 receptor; averages of 2-20 runs; read-out: rOX1 Ki
So I've got a bunch of compounds here, and I need their Ki values.
Write the quantity with the unit trailing the number.

Recorded Ki, per entry:
line.notation	Ki
Cc1cnc(N[C@@H]2C[C@H]3C[C@@H]2N(C(=O)c2cccc(F)c2-n2nccn2)C3)cn1	12 nM
Cc1ccc(-n2nccn2)c(C(=O)N2C[C@H]3C[C@@H](Oc4ccc(C(F)(F)F)nn4)[C@@H]2C3)n1	330 nM
O=C(c1ccccc1-c1ncccn1)N1C[C@H]2C[C@@H](Nc3ncc(Cl)cn3)[C@@H]1C2	17 nM

For the next question, use this compound.
Task: Which Ki value belongs to O=C(c1c(F)cccc1-c1ncccn1)N1C[C@@H]2CC[C@H]1[C@H](Oc1ccc(C(F)(F)F)cn1)C2 ?
Output: 21 nM

---

Molecular target: rat orexin 1 receptor (Rattus norvegicus)
Experiment: Rat orexin 1 receptor radioligand binding
Details: rat orexin 1 receptor; averages of 2-20 runs; read-out: rOX1 Ki
So I've got a bunch of compounds here, and I need their Ki values.
Numbers only, in nM.

Recorded Ki, per entry:
compound	value.units	Ki
O=C(c1cccc(F)c1-c1ncccn1)N1C[C@H]2C[C@@H](N(CC3CC3)c3ccc(C(F)(F)F)cn3)[C@@H]1C2 [Example 161]	nM	14
O=C(c1cccc(F)c1-c1ncccn1)N1C[C@H]2C[C@@H](Nc3ccc(C(F)F)cn3)[C@@H]1C2 [Example 174]	nM	18
CN(c1ccc(C(F)(F)F)cn1)[C@@H]1C[C@H]2C[C@@H]1N(C(=O)c1cccc(F)c1-n1nccn1)C2 [Example 154]	nM	4
O=C(c1cccc(F)c1-n1nccn1)N1C[C@H]2C[C@@H](Nc3nc4ccccc4o3)[C@@H]1C2 [Example 182]	nM	3
O=C(c1c(F)cccc1-c1ncco1)N1C[C@H]2C[C@@H](Nc3ncc(C(F)(F)F)cn3)[C@@H]1C2 [Example 232]	nM	24

Provide Ki values for the following items, in order.
1. O=C(c1cccc(F)c1-n1nccn1)N1C[C@H]2C[C@@H](Nc3cnc(C(F)(F)F)cn3)[C@@H]1C2 [Example 192]
2. O=C(c1cccc(F)c1-c1ncccn1)N1C[C@H]2C[C@@H](Oc3ccc(F)cn3)[C@@H]1C2 [Example 120]
3. Cc1ccc(-n2nccn2)c(C(=O)N2C[C@H]3C[C@@H](Oc4ccc5cccnc5n4)[C@@H]2C3)n1 [Example 286]

Output:
8
60
822

---

Biological target: human orexin 1 receptor (Homo sapiens)
Assay: Human orexin 1 receptor radioligand binding
Settings: human orexin 1 receptor; averages of 2-20 runs; read-out: hOX1 Ki
observed.property: pKi
Give bare numbers, as −log10 of the molar value.

Recorded pKi, per entry:
molecule	observed.result
O=C(c1cccc(F)c1-c1ncccn1)N1C[C@H]2C[C@@H](Nc3ccc(Br)cn3)[C@@H]1C2	8.22
Cc1noc(-c2cc(F)ccc2C(=O)N2C[C@H]3C[C@@H](Nc4ccc(C(F)(F)F)cn4)[C@@H]2C3)n1	7.80
O=C(c1ccccc1-n1nccn1)N1C[C@H]2C[C@@H](Nc3cnc(C(F)(F)F)cn3)[C@@H]1C2	8.15
O=C(c1ncccc1-c1ncccn1)N1C[C@H]2C[C@@H](Nc3cnc(C(F)(F)F)cn3)[C@@H]1C2	7.96
O=C(c1ccc(F)cc1-c1ncccn1)N1C[C@@H]2CC[C@H]1[C@H](Oc1ccc(C(F)(F)F)cn1)C2	7.72

Provide pKi values for the following items, in order.
1. O=C(c1ccc(F)cc1-c1ncccn1)N1C[C@@H]2CC[C@H]1[C@H](Nc1cnc(C(F)(F)F)cn1)C2
2. O=C(c1ccc(F)cc1-n1nccn1)N1C[C@H]2C[C@@H](Nc3ncc(C(F)(F)F)cn3)[C@@H]1C2
3. O=C(c1c(F)cccc1-c1ncccn1)N1C[C@@H]2CC[C@H]1[C@H](Oc1ccc(C(F)(F)F)cn1)C2
4. O=C(c1cccc(F)c1-c1ncccn1)N1C[C@H]2C[C@@H](Oc3ccc(C(F)F)cn3)[C@@H]1C2
5. O=C(c1ccccc1-c1ncc(F)cn1)N1C[C@@H]2CC[C@H]1[C@H](Oc1ccc(C(F)(F)F)cn1)C2
6. Cc1ccc(-n2nccn2)c(C(=O)N2C[C@H]3C[C@@H](Oc4ccc(Cl)cn4)[C@@H]2C3)n1
7. Cc1cnc(C(=O)N2C[C@H]3C[C@@H](Nc4cnc(C(F)(F)F)cn4)[C@@H]2C3)c(-c2ncccn2)c1
8. O=C(c1cccc(F)c1-n1nccn1)N1C[C@H]2C[C@@H](Nc3cnc(Cl)cn3)[C@@H]1C2

Output:
1. 7.82
2. 7.48
3. 8.05
4. 8.00
5. 8.00
6. 7.64
7. 7.92
8. 8.05

Provide pKi values for the following items, in order.
1. O=C(c1ccccc1-c1ncc(F)cn1)N1C[C@@H]2CC[C@H]1[C@H](Oc1cnc(C(F)(F)F)cn1)C2
2. O=C(c1ccccc1-n1nccn1)N1C[C@H]2C[C@@H](Oc3ccc(C(F)F)cn3)[C@@H]1C2
3. O=C(c1ccc(F)cc1-c1ncccn1)N1CC2CCC1C(Oc1ccc(C(F)(F)F)cn1)C2 (racemic)
4. Cc1cccc(C(=O)N2C[C@H]3C[C@@H](Oc4ccc(C(F)(F)F)cn4)[C@@H]2C3)c1-c1ncco1
5. O=C(c1ccccc1-n1nccn1)N1C[C@H]2C[C@@H](Nc3ccc(Br)cn3)[C@@H]1C2
6. O=C(c1cccc(F)c1-c1ncccn1)N1C[C@H]2C[C@@H](Nc3cnc(C(F)(F)F)cn3)[C@@H]1C2
7. O=C(c1c(F)cccc1-c1ncccn1)N1C[C@H]2C[C@@H](Nc3ccc(Br)cn3)[C@@H]1C2

Output:
[7.96, 7.96, 7.62, 8.22, 8.40, 8.15, 8.40]

Cited source for all entries: patent US9611277B2
